ASSAY EXPLANATION: Peroral dose causing 50% death of the mice population
Type: ADME, organism-based
TEST PARAMETERS: mouse, in vivo, po
For each of the compounds below, state its LD50.

Recorded LD50 for COc1ccc(C2SCC(=O)N2CCN2C(=O)CSC2c2ccc(OC)c(F)c2)cc1F (stereo not given) , please?
> 1000 mg/kg

// lookup LD50 for COc1cccc(C2SCC(=O)N2CCN2C(=O)CSC2c2cccc(OC)c2)c1 (stereo not given)
> 1000 mg/kg

Could you tell me which LD50 is on file for CCCCC1C(=O)N(c2ccccc2)N(c2ccccc2)C1=O [PHENYLBUTAZONE] ?
300 mg/kg

Can you share its LD50? I mean this compound: O=C1CSC(c2ccc(Cl)c(Cl)c2)N1CCN1C(=O)CSC1c1ccc(Cl)c(Cl)c1 (stereo not given)
> 1000 mg/kg

Need LD50, item O=C1CSC(c2cccc([N+](=O)[O-])c2)N1CCN1C(=O)CSC1c1cccc([N+](=O)[O-])c1 (stereo not given)
> 1000 mg/kg

---

Test system: Rattus norvegicus
ASSAY EXPLANATION: Percent Edema variation in Carrageenan-induced paw edema test at a dose of 100 mg/kg perorally in rats after 180 min
Format: functional
TEST PARAMETERS: route oral
READOUT NAME: Edema variation
# include the unit after the value

Reported Edema variation, compound `O=C1CS[C@H](c2ccc(Cl)c(Cl)c2)N1CCN1C(=O)CS[C@H]1c1ccc(Cl)c(Cl)c1` : ____
-61.2%

Fill in the blank: the reported Edema variation of `COc1ccc([C@H]2SCC(=O)N2CCN2C(=O)CS[C@H]2c2ccc(OC)c(F)c2)cc1F` is ____.
30.11%

Find the recorded Edema variation belonging to COc1cccc(C2SCC(=O)N2CCN2C(=O)CSC2c2cccc(OC)c2)c1 (stereo not drawn) and report it.
-18.31%

Quick one: Edema variation for O=C1CSC(c2ccc(Cl)c(Cl)c2)N1CCN1C(=O)CSC1c1ccc(Cl)c(Cl)c1 (stereo not drawn) ?
-27.48%

Which Edema variation reading was recorded for the compound Cc1cccc(C2SCC(=O)N2CCN2C(=O)CSC2c2cccc(C)c2)c1 (stereo not drawn) ?
-23.6%

Which measured Edema variation value corresponds to COc1ccc(OC)c(C2SCC(=O)N2CCN2C(=O)CSC2c2cc(OC)ccc2OC)c1 (stereo not drawn) ?
-70.22%

Using the record for `COc1cccc([C@H]2SCC(=O)N2CCN2C(=O)CS[C@H]2c2cccc(OC)c2)c1` , report its Edema variation.
20.1%

Look up Edema variation for this compound: O=C1CSC(c2cccc([N+](=O)[O-])c2)N1CCN1C(=O)CSC1c1cccc([N+](=O)[O-])c1 (stereo not drawn)
23.43%

---

Tested on: Rattus norvegicus
ASSAY EXPLANATION: Number of writhings in Acetic acid Writhing test at a dose of 100 mg/kg perorally in rats
Type: functional
TEST PARAMETERS: route oral
Consider the following compounds; for each one, report its No. of writhings.
# respond with the number and nothing more

Bench note: what No. of writhings did `COc1cccc([C@H]2SCC(=O)N2CCN2C(=O)CS[C@H]2c2cccc(OC)c2)c1` show?
8.1

Requested read-out: No. of writhings. Entry: `O=C1CS[C@H](c2cccc([N+](=O)[O-])c2)N1CCN1C(=O)CS[C@H]1c1cccc([N+](=O)[O-])c1`
17.8

Any idea what its No. of writhings is? The compound is `O=C1CS[C@H](c2ccc(Cl)c(Cl)c2)N1CCN1C(=O)CS[C@H]1c1ccc(Cl)c(Cl)c1`
4.6

Name the recorded No. of writhings for COc1ccc(C2SCC(=O)N2CCN2C(=O)CSC2c2ccc(OC)cc2)cc1 (stereo unspecified) .
15.8

Quick check: No. of writhings of `COc1ccc([C@H]2SCC(=O)N2CCN2C(=O)CS[C@H]2c2ccc(OC)c(OC)c2)cc1OC` ?
10

Entry O=C1CSC(c2ccc(Cl)c(Cl)c2)N1CCN1C(=O)CSC1c1ccc(Cl)c(Cl)c1 (stereo unspecified) : reported No. of writhings = ?
15.2

Give the measured No. of writhings of COc1ccc(C2SCC(=O)N2CCN2C(=O)CSC2c2ccc(OC)c(OC)c2)cc1OC (stereo unspecified) .
9.6

Please give the measured No. of writhings for this compound: COc1ccc(C2SCC(=O)N2CCN2C(=O)CSC2c2ccc(OC)c(F)c2)cc1F (stereo unspecified)
16.4

Would you mind telling me what No. of writhings value was observed for `COc1ccc([C@H]2SCC(=O)N2CCN2C(=O)CS[C@H]2c2ccc(OC)cc2)cc1` ?
11.3

Using the record for COc1cccc(C2SCC(=O)N2CCN2C(=O)CSC2c2cccc(OC)c2)c1 (stereo unspecified) , report its No. of writhings.
19.5

Record request: No. of writhings value, item `COc1ccc([C@H]2SCC(=O)N2CCN2C(=O)CS[C@H]2c2ccc(OC)c(F)c2)cc1F`
10.2

---

Test system: Rattus norvegicus
ASSAY EXPLANATION: Percent Edema variation in Carrageenan-induced paw edema test at a dose of 100 mg/kg perorally in rats after 180 min (p<0.001)
Type: functional
TEST PARAMETERS: route oral
READOUT NAME: Edema variation (%)
Kindly provide the numeric value in % only, without the unit symbol.

Quick one: Edema variation of COc1ccc(C2SCC(=O)N2CCN2C(=O)CSC2c2ccc(OC)cc2)cc1 (centres undefined) ?
-64.98

Given `O=C1CS[C@H](c2cccc([N+](=O)[O-])c2)N1CCN1C(=O)CS[C@H]1c1cccc([N+](=O)[O-])c1` , state its recorded Edema variation.
21.11

Using the record for `COc1ccc([C@H]2SCC(=O)N2CCN2C(=O)CS[C@H]2c2ccc(OC)cc2)cc1` , report its Edema variation.
-96.42

Reported Edema variation for COc1ccc(C2SCC(=O)N2CCN2C(=O)CSC2c2ccc(OC)c(OC)c2)cc1OC (centres undefined) : what is it?
-76.62
